Target: SIK2 (h) (Homo sapiens (Human))
Experiment: SIK2 kinase activity, Eurofins KinaseProfiler ([γ-33P]-ATP filter assay)
Type: biochemical
Conditions: Table 5, macrocycle precursors; read-out: IC50 nM SIK2
Measured attribute: IC50

Query IC50 for COC(=O)CCCN1C(=O)N(c2c(C)cccc2C)Cc2cnc(Nc3ccc(N4CCN(C)CC4)c(CO)c3)nc21 3 nM

---

Listed compounds paired with reported EC50
Target: SIK1 (Homo sapiens (Human), UniProt P57059)
Sequence (P57059 whole entry): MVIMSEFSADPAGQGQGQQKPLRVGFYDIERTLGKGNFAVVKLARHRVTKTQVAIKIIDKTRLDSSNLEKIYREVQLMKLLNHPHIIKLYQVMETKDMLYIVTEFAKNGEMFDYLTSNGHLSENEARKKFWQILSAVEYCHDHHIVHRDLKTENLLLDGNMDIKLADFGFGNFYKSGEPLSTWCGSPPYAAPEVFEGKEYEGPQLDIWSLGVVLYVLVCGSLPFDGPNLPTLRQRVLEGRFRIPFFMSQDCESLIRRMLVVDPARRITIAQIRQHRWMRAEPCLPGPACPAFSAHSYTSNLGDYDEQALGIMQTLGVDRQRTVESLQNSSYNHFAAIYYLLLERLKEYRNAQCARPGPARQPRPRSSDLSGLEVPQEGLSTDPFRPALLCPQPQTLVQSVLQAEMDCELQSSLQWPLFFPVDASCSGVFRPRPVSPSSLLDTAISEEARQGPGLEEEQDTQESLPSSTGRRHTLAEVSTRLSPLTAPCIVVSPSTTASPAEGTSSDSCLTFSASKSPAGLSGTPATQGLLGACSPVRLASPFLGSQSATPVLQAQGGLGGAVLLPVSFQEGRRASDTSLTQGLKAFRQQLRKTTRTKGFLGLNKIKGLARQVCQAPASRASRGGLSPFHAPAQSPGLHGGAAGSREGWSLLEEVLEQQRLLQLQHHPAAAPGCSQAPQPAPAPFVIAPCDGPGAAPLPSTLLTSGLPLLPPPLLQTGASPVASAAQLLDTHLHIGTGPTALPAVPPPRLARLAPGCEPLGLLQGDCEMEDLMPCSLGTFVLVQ
Assay: cell-based
Answer in nM, number only, no unit symbol.

Known results for compounds:
Compound | Quantity unit | EC50
Cc1cccc(C)c1N1Cc2cnc3nc2N(CCCOC(=O)c2cc(ccc2N2CCN(C)CC2)N3)C1=O [SLT-041] | nM | 10.5
Cc1cccc(C)c1N1Cc2cnc3nc2N(CCCCOC(=O)c2cc(ccc2N2CCN(C)CC2)N3)C1=O [SLT-042] | nM | 2.02
Cc1cccc(C)c1N1Cc2cnc3nc2N(CCCCC(=O)OCc2cc(ccc2N2CCN(C)CC2)N3)C1=O [SLT-033] | nM | 6.08

Find the measured EC50 of Cc1cccc(C)c1N1Cc2cnc3nc2N(CCCC(=O)OCc2cc(ccc2N2CCN(C)CC2)N3)C1=O [SLT-026] and report it. 3.24

---

Target: SIK1 (Homo sapiens (Human), UniProt P57059)
Assay: cell-based
Measured attribute: pEC50
Kindly note that pEC50 refers to -log10 of the concentration in mol/L and answer with the value alone.

Completed entries (count: 3):
Smiles code | pEC50
Cc1cccc(C)c1N1Cc2cnc3nc2N(CCC(=O)OCc2cc(ccc2N2CCN(C)CC2)N3)C1=O | 7.06
Cc1cccc(C)c1N1Cc2cnc(Nc3ccc(N4CCN(C)CC4)c(CO)c3)nc2N(CCCCC(=O)O)C1=O | 6.39
Cc1cccc(C)c1N1Cc2cnc3nc2N(CCCOC(=O)Cc2cc(ccc2N2CCN(C)CC2)N3)C1=O | 8.59

Alright, here's another compound for you.
Specify pEC50 for Cc1cccc(C)c1N1Cc2cnc3nc2N(CCCCCOC(=O)c2cc(ccc2N2CCN(C)CC2)N3)C1=O and stop. 8.36

---

Target: SIK2 (h) (Homo sapiens (Human), UniProt Q9H0K1)
Experiment: SIK2 kinase activity, Eurofins KinaseProfiler ([γ-33P]-ATP filter assay)
Type: biochemical
Measured attribute: pIC50
# pIC50 is unitless: minus log10 of the molar concentration; print number only

Compound | pIC50
Cc1cccc(C)c1N1Cc2cnc3nc2N(C/C=C\CC(=O)OCc2cc(ccc2N2CCN(C)CC2)N3)C1=O [SLT-062] | 9.10

# return recorded pIC50 for input Cc1cccc(C)c1N1Cc2cnc3nc2N(C/C=C\C(=O)OCc2cc(ccc2N2CCN(C)CC2)N3)C1=O [SLT-073] 9.15

---

Molecular target: SIK (h) / SIK1 (Homo sapiens (Human), UniProt P57059)
Assay: SIK1 kinase activity, Eurofins KinaseProfiler ([γ-33P]-ATP filter assay)
Assay type: biochemical
Settings: Table 5, macrocycle precursors
Items are presented alongside their recorded IC50.
Output should be the measured figure followed by the unit it is expressed in.

Molecule | IC50
Cc1cccc(C)c1N1Cc2cnc(Nc3ccc(N4CCN(C)CC4)c(CO)c3)nc2N(CCC(=O)O)C1=O [SLT-020] | 5 nM

Name the recorded IC50 of the molecule listed here: Cc1cccc(C)c1N1Cc2cnc(Nc3ccc(N4CCN(C)CC4)c(CO)c3)nc2N(CCCC(=O)O)C1=O [SLT-025] 3 nM

Entry COC(=O)CCCN1C(=O)N(c2c(C)cccc2C)Cc2cnc(Nc3ccc(N4CCN(C)CC4)c(CO)c3)nc21 [SLT-019] needs its IC50 filled in; supply it. 2 nM

Kindly indicate its recorded IC50. Item: Cc1cccc(C)c1N1Cc2cnc(Nc3ccc(N4CCN(C)CC4)c(CO)c3)nc2N(CCCCC(=O)O)C1=O [SLT-027] 2 nM
